Sourced from ChEMBL document CHEMBL4177701

Overview of recorded pKi for various compounds
- Experimental target: UniProt Q6GI75
- Sequence (Q6GI75 whole entry): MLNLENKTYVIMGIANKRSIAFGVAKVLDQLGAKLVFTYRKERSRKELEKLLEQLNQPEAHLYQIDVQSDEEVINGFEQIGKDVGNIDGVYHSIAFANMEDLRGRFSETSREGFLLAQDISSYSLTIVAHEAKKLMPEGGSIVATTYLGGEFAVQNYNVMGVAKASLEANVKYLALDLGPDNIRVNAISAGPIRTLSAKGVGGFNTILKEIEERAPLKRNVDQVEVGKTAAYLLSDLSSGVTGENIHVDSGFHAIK
Quick note: pKi means taking -log10 of the concentration in moles per liter.

Example results:
* COc1ccccc1C1CCN(C(=O)Cc2cccc(F)c2F)C1 (racemic) | 5.96
* CC(=O)Nc1ccc(/C=C/C(=O)N2CCC(c3ccccn3)C2)cn1 (racemic) | 4.98
* COc1ccc(C2CCN(C(=O)Cc3ccccc3Cl)C2)cc1 (racemic) | 5.34

Now look at this one.
(Q) Which measured pKi value corresponds to CC(=O)Nc1ccc(/C=C/C(=O)N2CCC(c3nccs3)C2)cn1 (racemic) ?
(A) 5.77
